Please consider the recorded pIC50 for Substance-P receptor (Rattus norvegicus, UniProt P14600) in what follows.
pIC50: −log10 of the molar value.
Recorded endpoint: pIC50

Recorded pIC50, per entry:
compound="CN(C)CCCOc1ccccc1CC(=O)N1CC2C(=O)CSC(c3ccccc3)(c3ccccc3)C2C1 (stereo unspecified)" assay_target="Substance-P receptor (Rattus norvegicus, UniProt P14600)" endpoint_value=7.59
compound=COc1ccccc1[C@H](C)C(=O)N1C[C@@H]2[C@H](C1)[C@@](O)(c1ccccc1OC)CSC2(c1ccccc1)c1ccccc1 assay_target="Substance-P receptor (Rattus norvegicus, UniProt P14600)" endpoint_value=5.52
compound="COc1ccccc1[C@H](SC)C(=O)N1CC2C(=O)CSC(c3ccccc3)(c3ccccc3)C2C1 (stereo partly specified)" assay_target="Substance-P receptor (Rattus norvegicus, UniProt P14600)" endpoint_value=8.30
compound=COc1ccccc1CC(=N)N1C[C@@H]2C(=O)CCC(c3ccccc3)(c3ccccc3)[C@@H]2C1 assay_target="Substance-P receptor (Rattus norvegicus, UniProt P14600)" endpoint_value=8.10

A = COc1ccccc1[C@H](C)C(=O)N1C[C@@H]2[C@H](C1)C(c1ccccc1)(c1ccccc1)CC[C@@]2(O)c1ccccc1OC [DAPITANT]
B = COc1ccccc1CC(=N)N1CC2C(=O)CSC(c3ccccc3)(c3ccccc3)C2C1 (stereo unspecified)
// returns A or B , whichever has the lower pIC50 Please indicate the selected item by its label.
A
(A: 5.85, B: 8.70)

###

pIC50: −log10 of the molar value.
Reported pIC50 values, Substance-P receptor (Homo sapiens, UniProt P25103).
Recorded endpoint: pIC50

P = CN(C)CCCOc1ccccc1CC(=O)N1CC2C(=O)CSC(c3ccccc3)(c3ccccc3)C2C1 (configuration not stated)
Q = CN(C)c1ccccc1CC(=O)N1CC2C(=O)CSC(c3ccccc3)(c3ccccc3)C2C1 (configuration not stated)
Compare the recorded pIC50 of P and Q ; state which is larger. Selection: enter the item's label.
P
